System: 945468-187-T-J2-PDC spheroids viability
Experiment: Anticancer human tumor 945468-187-T-J2-PDC patient-derived rectal carcinoma cell line growth inhibition [PI3K]
Details: second compound 0.01 µM; first compound 3.16 µM; hits give low values; spheroids with HUVEC and MSC
Text: Combinatorial screen of targeted agents with the PI3K inhibitors inavolisib, alpelisib, duvelisib, and copanlisib in multi-cell type tumor spheroids A high-throughput screen of multi-cell type tumor spheroids was designed to identify active combinations of targeted small molecules and PI3K pathway inhibitors. […] Compounds. […] If the clinical Cmax for an agent had not been determined, the highest concentration tested was 10 microM. […]
Rule: viability, T/C below 80% gives y. Equal to or above 80% gives n.

C=CC(=O)N1CCN(c2nc(=O)n(-c3c(C)ccnc3C(C)C)c3nc(-c4c(O)cccc4F)c(F)cc23)C(C)C1 (stereo unspecified) + COc1c(OCCCN2CCOCC2)ccc2c3n(c(=NC(=O)c4cnc(N)nc4)nc12)CCN3 :: n
C=CC(=O)N1CCN(c2nc(=O)n(-c3c(C)ccnc3C(C)C)c3nc(-c4c(O)cccc4F)c(F)cc23)C(C)C1 (stereo unspecified) + CC(Nc1ccc2c(c1)OCCn1cc(N3C(=O)OCC3C(F)F)nc1-2)C(N)=O :: n
CCCS(=O)(=O)Nc1ccc(F)c(C(=O)c2c[nH]c3ncc(-c4ccc(Cl)cc4)cc23)c1F + CC(Nc1ccc2c(c1)OCCn1cc(N3C(=O)OCC3C(F)F)nc1-2)C(N)=O :: y
C[C@@H](NC(=O)c1ncnc(N)c1Cl)c1ncc(C(=O)Nc2cc(C(F)(F)F)c(Cl)cn2)s1 + CC(Nc1ccc2c(c1)OCCn1cc(N3C(=O)OCC3C(F)F)nc1-2)C(N)=O :: n
CCCS(=O)(=O)Nc1ccc(F)c(C(=O)c2c[nH]c3ncc(-c4ccc(Cl)cc4)cc23)c1F + COc1c(OCCCN2CCOCC2)ccc2c3n(c(=NC(=O)c4cnc(N)nc4)nc12)CCN3 :: n

Dear reviewer, please state whether CC(C)NCC(C(=O)N1CCN(c2ncnc3c2C(C)CC3O)CC1)c1ccc(Cl)cc1 (stereo unspecified) + COc1c(OCCCN2CCOCC2)ccc2c3n(c(=NC(=O)c4cnc(N)nc4)nc12)CCN3 has viability, T/C strictly beneath 80%.
n

Does this molecule meet the criterion viability, T/C < 80%? CC(Cn1ccc(-c2ccc(C#N)c(Cl)c2)n1)NC(=O)c1cc(C(C)O)[nH]n1 (stereo unspecified) + CC(Nc1ccc2c(c1)OCCn1cc(N3C(=O)OCC3C(F)F)nc1-2)C(N)=O
n

====

Provide the recorded viability, T/C for the entries that follow.
Tested on: 945468-187-T-J2-PDC spheroids viability
Test: Anticancer human tumor 945468-187-T-J2-PDC cell line growth inhibition [PI3K];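 also: spheroids exposed to compounds for seven days before reading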
Conditions: second compound 0.01 µM; first compound 10 µM; hits give low values; spheroids with HUVEC and MSC
Numbers only, in %.

C[C@@H](NC(=O)c1ncnc(N)c1Cl)c1ncc(C(=O)Nc2cc(C(F)(F)F)c(Cl)cn2)s1 + COc1c(OCCCN2CCOCC2)ccc2c3n(c(=NC(=O)c4cnc(N)nc4)nc12)CCN3 :: 125

// batch mode: one viability, T/C value per listed entry
1. CC1(C)CCC(CN2CCN(c3ccc(C(=O)NS(=O)(=O)c4ccc(NCC5CCOCC5)c([N+](=O)[O-])c4)c(Oc4cnc5[nH]ccc5c4)c3)CC2)=C(c2ccc(Cl)cc2)C1 + COc1c(OCCCN2CCOCC2)ccc2c3n(c(=NC(=O)c4cnc(N)nc4)nc12)CCN3
2. CNC(=O)c1ccc(N2C(=S)N(c3ccc(C#N)c(C(F)(F)F)c3)C(=O)C2(C)C)cc1F + CC(Nc1ccc2c(c1)OCCn1cc(N3C(=O)OCC3C(F)F)nc1-2)C(N)=O
3. CC1(C)CCC(CN2CCN(c3ccc(C(=O)NS(=O)(=O)c4ccc(NCC5CCOCC5)c([N+](=O)[O-])c4)c(Oc4cnc5[nH]ccc5c4)c3)CC2)=C(c2ccc(Cl)cc2)C1 + CC(Nc1ccc2c(c1)OCCn1cc(N3C(=O)OCC3C(F)F)nc1-2)C(N)=O
4. CNC(=O)c1ccc(N2C(=S)N(c3ccc(C#N)c(C(F)(F)F)c3)C(=O)C2(C)C)cc1F + COc1c(OCCCN2CCOCC2)ccc2c3n(c(=NC(=O)c4cnc(N)nc4)nc12)CCN3
5. CC1(C)CCC(Nc2ncc(C(F)(F)F)c(-c3c[nH]c4c(P(C)(C)=O)c(C#N)ccc34)n2)CN1 (stereo unspecified) + CC(Nc1ccc2c(c1)OCCn1cc(N3C(=O)OCC3C(F)F)nc1-2)C(N)=O

1. 90.3
2. 84.4
3. 51.7
4. 72.1
5. 42.7

====

Test system: 945468-187-T-J2-PDC spheroids viability
Experiment: Anticancer human tumor 945468-187-T-J2-PDC cell line growth inhibition [PI3K];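 also: spheroids exposed to compounds for seven days before reading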
Conditions: second compound 0.0316 µM; first compound 0.316 µM; hits give low values; spheroids with HUVEC and MSC
experimental-readout: viability, T/C (%)
Numbers only, in %.

CC1(C)CCC(CN2CCN(c3ccc(C(=O)NS(=O)(=O)c4ccc(NCC5CCOCC5)c([N+](=O)[O-])c4)c(Oc4cnc5[nH]ccc5c4)c3)CC2)=C(c2ccc(Cl)cc2)C1 + Cc1nc(NC(=O)N2CCCC2C(N)=O)sc1-c1ccnc(C(C)(C)C(F)(F)F)c1 :: 121
Cn1ncc(Cl)c1-c1cc(C(=O)NC(CN)Cc2cccc(F)c2)sc1Cl (stereo unspecified) + COc1c(OCCCN2CCOCC2)ccc2c3n(c(=NC(=O)c4cnc(N)nc4)nc12)CCN3 :: 82.4
C[C@@H](NC(=O)c1ncnc(N)c1Cl)c1ncc(C(=O)Nc2cc(C(F)(F)F)c(Cl)cn2)s1 + Cc1nc(NC(=O)N2CCCC2C(N)=O)sc1-c1ccnc(C(C)(C)C(F)(F)F)c1 :: 77.2
C[C@@H](NC(=O)c1ncnc(N)c1Cl)c1ncc(C(=O)Nc2cc(C(F)(F)F)c(Cl)cn2)s1 + COc1c(OCCCN2CCOCC2)ccc2c3n(c(=NC(=O)c4cnc(N)nc4)nc12)CCN3 :: 111
Cn1nccc1Nc1nccc(-c2ccn(C(CO)c3ccc(Cl)c(F)c3)c(=O)c2)n1 (stereo unspecified) + Cc1nc(NC(=O)N2CCCC2C(N)=O)sc1-c1ccnc(C(C)(C)C(F)(F)F)c1 :: 88.5

// for each compound below, give its viability, T/C
1. Cn1nccc1Nc1nccc(-c2ccn(C(CO)c3ccc(Cl)c(F)c3)c(=O)c2)n1 (stereo unspecified) + CC(Nc1ccc2c(c1)OCCn1cc(N3C(=O)OCC3C(F)F)nc1-2)C(N)=O
2. C[C@@H](NC(=O)c1ncnc(N)c1Cl)c1ncc(C(=O)Nc2cc(C(F)(F)F)c(Cl)cn2)s1 + CC(Nc1ncnc2nc[nH]c12)c1cc2cccc(Cl)c2c(=O)n1-c1ccccc1

[92.6, 113]

Take each entry in turn and give its viability, T/C.
1. CC(Cn1ccc(-c2ccc(C#N)c(Cl)c2)n1)NC(=O)c1cc(C(C)O)[nH]n1 (stereo unspecified) + COc1c(OCCCN2CCOCC2)ccc2c3n(c(=NC(=O)c4cnc(N)nc4)nc12)CCN3
2. CC1(C)CCC(Nc2ncc(C(F)(F)F)c(-c3c[nH]c4c(P(C)(C)=O)c(C#N)ccc34)n2)CN1 (stereo unspecified) + Cc1nc(NC(=O)N2CCCC2C(N)=O)sc1-c1ccnc(C(C)(C)C(F)(F)F)c1

113
78.4

For each of the compounds below, state viability, T/C.
1. CCCS(=O)(=O)Nc1ccc(F)c(C(=O)c2c[nH]c3ncc(-c4ccc(Cl)cc4)cc23)c1F + COc1c(OCCCN2CCOCC2)ccc2c3n(c(=NC(=O)c4cnc(N)nc4)nc12)CCN3
2. CCN1CCN(Cc2ccc(Nc3ncc(F)c(-c4cc(F)c5nc(C)n(C(C)C)c5c4)n3)nc2)CC1 + CC(Nc1ccc2c(c1)OCCn1cc(N3C(=O)OCC3C(F)F)nc1-2)C(N)=O

1: 90.2; 2: 111

====

Tested on: 945468-187-T-J2-PDC spheroids viability
Assay: Anticancer human tumor 945468-187-T-J2-PDC cell line growth inhibition [PI3K];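 also: spheroids exposed to compounds for seven days before reading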
Conditions: second compound 0.0316 µM; first compound 0.316 µM; hits give low values; spheroids with HUVEC and MSC
Description: Combinatorial screen of targeted agents with the PI3K inhibitors inavolisib, alpelisib, duvelisib, and copanlisib in multi-cell type tumor spheroids A high-throughput screen of multi-cell type tumor spheroids was designed to identify active combinations of targeted small molecules and PI3K pathway inhibitors. […] Compounds. […] If the clinical Cmax for an agent had not been determined, the highest concentration tested was 10 microM. […]
Please provide measured viability, T/C for the entries that follow.
Give bare numbers, in %.

Check out these entries, answers already filled in.
CCCS(=O)(=O)Nc1ccc(F)c(C(=O)c2c[nH]c3ncc(-c4ccc(Cl)cc4)cc23)c1F + CC(Nc1ncnc2nc[nH]c12)c1cc2cccc(Cl)c2c(=O)n1-c1ccccc1 :: 104
CC1(C)CCC(CN2CCN(c3ccc(C(=O)NS(=O)(=O)c4ccc(NCC5CCOCC5)c([N+](=O)[O-])c4)c(Oc4cnc5[nH]ccc5c4)c3)CC2)=C(c2ccc(Cl)cc2)C1 + COc1c(OCCCN2CCOCC2)ccc2c3n(c(=NC(=O)c4cnc(N)nc4)nc12)CCN3 :: 82.9
Cn1nccc1Nc1nccc(-c2ccn(C(CO)c3ccc(Cl)c(F)c3)c(=O)c2)n1 (stereo not given) + CC(Nc1ncnc2nc[nH]c12)c1cc2cccc(Cl)c2c(=O)n1-c1ccccc1 :: 92
Cn1nccc1Nc1nccc(-c2ccn(C(CO)c3ccc(Cl)c(F)c3)c(=O)c2)n1 (stereo not given) + COc1c(OCCCN2CCOCC2)ccc2c3n(c(=NC(=O)c4cnc(N)nc4)nc12)CCN3 :: 100
C=CC(=O)N1CCN(c2nc(=O)n(-c3c(C)ccnc3C(C)C)c3nc(-c4c(O)cccc4F)c(F)cc23)C(C)C1 (stereo not given) + CC(Nc1ccc2c(c1)OCCn1cc(N3C(=O)OCC3C(F)F)nc1-2)C(N)=O :: 103
Cn1ncc(Cl)c1-c1cc(C(=O)NC(CN)Cc2cccc(F)c2)sc1Cl (stereo not given) + Cc1nc(NC(=O)N2CCCC2C(N)=O)sc1-c1ccnc(C(C)(C)C(F)(F)F)c1 :: 104
CC(Cn1ccc(-c2ccc(C#N)c(Cl)c2)n1)NC(=O)c1cc(C(C)O)[nH]n1 (stereo not given) + CC(Nc1ccc2c(c1)OCCn1cc(N3C(=O)OCC3C(F)F)nc1-2)C(N)=O :: 88
CC1(C)CCC(Nc2ncc(C(F)(F)F)c(-c3c[nH]c4c(P(C)(C)=O)c(C#N)ccc34)n2)CN1 (stereo not given) + COc1c(OCCCN2CCOCC2)ccc2c3n(c(=NC(=O)c4cnc(N)nc4)nc12)CCN3 :: 69.2

Take each entry in turn and give its viability, T/C.
1. CCCS(=O)(=O)Nc1ccc(F)c(C(=O)c2c[nH]c3ncc(-c4ccc(Cl)cc4)cc23)c1F + CC(Nc1ccc2c(c1)OCCn1cc(N3C(=O)OCC3C(F)F)nc1-2)C(N)=O
2. CNC(=O)c1ccc(N2C(=S)N(c3ccc(C#N)c(C(F)(F)F)c3)C(=O)C2(C)C)cc1F + Cc1nc(NC(=O)N2CCCC2C(N)=O)sc1-c1ccnc(C(C)(C)C(F)(F)F)c1
3. CCN1CCN(Cc2ccc(Nc3ncc(F)c(-c4cc(F)c5nc(C)n(C(C)C)c5c4)n3)nc2)CC1 + Cc1nc(NC(=O)N2CCCC2C(N)=O)sc1-c1ccnc(C(C)(C)C(F)(F)F)c1
4. C=CC(=O)N1CCN(c2nc(=O)n(-c3c(C)ccnc3C(C)C)c3nc(-c4c(O)cccc4F)c(F)cc23)C(C)C1 (stereo not given) + COc1c(OCCCN2CCOCC2)ccc2c3n(c(=NC(=O)c4cnc(N)nc4)nc12)CCN3
5. CC1(C)CCC(CN2CCN(c3ccc(C(=O)NS(=O)(=O)c4ccc(NCC5CCOCC5)c([N+](=O)[O-])c4)c(Oc4cnc5[nH]ccc5c4)c3)CC2)=C(c2ccc(Cl)cc2)C1 + CC(Nc1ccc2c(c1)OCCn1cc(N3C(=O)OCC3C(F)F)nc1-2)C(N)=O

1: 98.8; 2: 88.8; 3: 107; 4: 108; 5: 95.3

# map each molecule to its viability, T/C
1. C#Cc1c(F)ccc2cc(O)cc(-c3ncc4c(N5CC6CCC(C5)N6)nc(OCC56CCCN5CC(F)C6)nc4c3F)c12 (stereo not given) + CC(Nc1ncnc2nc[nH]c12)c1cc2cccc(Cl)c2c(=O)n1-c1ccccc1
2. CC1(C)CCC(Nc2ncc(C(F)(F)F)c(-c3c[nH]c4c(P(C)(C)=O)c(C#N)ccc34)n2)CN1 (stereo not given) + CC(Nc1ccc2c(c1)OCCn1cc(N3C(=O)OCC3C(F)F)nc1-2)C(N)=O
3. C#Cc1c(F)ccc2cc(O)cc(-c3ncc4c(N5CC6CCC(C5)N6)nc(OCC56CCCN5CC(F)C6)nc4c3F)c12 (stereo not given) + COc1c(OCCCN2CCOCC2)ccc2c3n(c(=NC(=O)c4cnc(N)nc4)nc12)CCN3
4. CC(Cn1ccc(-c2ccc(C#N)c(Cl)c2)n1)NC(=O)c1cc(C(C)O)[nH]n1 (stereo not given) + Cc1nc(NC(=O)N2CCCC2C(N)=O)sc1-c1ccnc(C(C)(C)C(F)(F)F)c1
5. CC(C)NCC(C(=O)N1CCN(c2ncnc3c2C(C)CC3O)CC1)c1ccc(Cl)cc1 (stereo not given) + CC(Nc1ccc2c(c1)OCCn1cc(N3C(=O)OCC3C(F)F)nc1-2)C(N)=O
6. C#Cc1c(F)ccc2cc(O)cc(-c3ncc4c(N5CC6CCC(C5)N6)nc(OCC56CCCN5CC(F)C6)nc4c3F)c12 (stereo not given) + Cc1nc(NC(=O)N2CCCC2C(N)=O)sc1-c1ccnc(C(C)(C)C(F)(F)F)c1
7. CC(C)NCC(C(=O)N1CCN(c2ncnc3c2C(C)CC3O)CC1)c1ccc(Cl)cc1 (stereo not given) + CC(Nc1ncnc2nc[nH]c12)c1cc2cccc(Cl)c2c(=O)n1-c1ccccc1

[95.8, 61.1, 94.2, 115, 95.2, 105, 111]
